Listing: % 25 nM CA200645 binding of selected molecules
MEASURED TARGET: human A3AR (Homo sapiens)
Construct: expressed in transfected cells
Sequence (P0DMS8 1-318): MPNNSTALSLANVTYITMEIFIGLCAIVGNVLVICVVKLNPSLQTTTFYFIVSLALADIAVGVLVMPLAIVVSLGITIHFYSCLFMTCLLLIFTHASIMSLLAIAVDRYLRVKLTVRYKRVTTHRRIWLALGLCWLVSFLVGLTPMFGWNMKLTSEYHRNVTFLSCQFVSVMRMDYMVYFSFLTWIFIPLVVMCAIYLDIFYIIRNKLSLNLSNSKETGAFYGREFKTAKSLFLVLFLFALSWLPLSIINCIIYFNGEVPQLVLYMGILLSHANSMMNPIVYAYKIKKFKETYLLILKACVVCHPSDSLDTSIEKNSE
ASSAY EXPLANATION: LOPAC library primary screen: single concentration (10 μM) inhibition of 25 nM CA200645 binding, PHERAstar FS
Where a name gives a salt, the structure may show the parent alone.
Field format: number, assumed %, no unit text.

# MOLECULE, % 25 nM CA200645 binding, %
records = [
    ("C=CCNc1ncnc2ccc(Br)cc12 [SMER28]", 86.4),
    ("COc1ccc([C@@H]2Sc3ccccc3N(CCN(C)C)C(=O)[C@@H]2OC(C)=O)cc1 [Diltiazem hydrochloride]", 97.4),
    ("O=c1cc(O)cc(/C=C/c2ccc(O)c(O)c2)o1 [Hispidin]", 77.8),
]

Continue with the next molecule.
Value of measured % 25 nM CA200645 binding for the entry CCCCCCCCCCCCCC(=O)O[C@@H]1[C@@H](C)[C@@]2(O)[C@@H](C=C(CO)C[C@]3(O)C(=O)C(C)=C[C@@H]23)[C@@H]2C(C)(C)[C@]12OC(C)=O [Phorbol 12-myristate 13-acetate] : 80.3
